Data origin, for the record: patent EP0749962B1

Known pKi of a selection of compounds
STUDY TARGET: 5-HT1Dβ (Homo sapiens, UniProt P28222)
Sequence (P28222 whole entry): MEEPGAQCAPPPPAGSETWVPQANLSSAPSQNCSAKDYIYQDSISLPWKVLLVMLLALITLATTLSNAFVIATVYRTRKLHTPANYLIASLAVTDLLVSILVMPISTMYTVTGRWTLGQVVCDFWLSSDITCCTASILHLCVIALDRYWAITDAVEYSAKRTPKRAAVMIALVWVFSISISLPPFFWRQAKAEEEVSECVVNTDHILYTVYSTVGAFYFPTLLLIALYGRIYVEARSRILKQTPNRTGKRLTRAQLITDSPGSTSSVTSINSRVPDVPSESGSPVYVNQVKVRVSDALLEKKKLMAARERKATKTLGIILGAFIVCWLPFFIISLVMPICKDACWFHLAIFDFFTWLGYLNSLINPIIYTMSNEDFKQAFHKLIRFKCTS
ASSAY DETAILS: [3H]5-HT radioligand binding to the cloned 5-HT1Dβ receptor
Counter-ions that a name gives are not always drawn.
pKi here: minus log base 10 of the concentration, concentration in moles per litre.

O=C(O)C(=O)O.Oc1ccc2[nH]cc(C3CCNCC3)c2c1 [Compound III, oxalate]: 6.71
CN(C)C1CCc2[nH]c3ccc(O)cc3c2C1 (stereo not drawn) [Compound V]: 5.77

Next, consider the following compound.
get_value(item= CCN(CC)C1CCc2cccc(Cl)c2C1 (stereo not drawn) [Compound IV, hydrochloride] , readout=pKi) returns 6.84
